// pEC50 lookup, one value per entry
Target: GPR139 (Homo sapiens, UniProt Q6DWJ6)
Sequence (Q6DWJ6 1-353): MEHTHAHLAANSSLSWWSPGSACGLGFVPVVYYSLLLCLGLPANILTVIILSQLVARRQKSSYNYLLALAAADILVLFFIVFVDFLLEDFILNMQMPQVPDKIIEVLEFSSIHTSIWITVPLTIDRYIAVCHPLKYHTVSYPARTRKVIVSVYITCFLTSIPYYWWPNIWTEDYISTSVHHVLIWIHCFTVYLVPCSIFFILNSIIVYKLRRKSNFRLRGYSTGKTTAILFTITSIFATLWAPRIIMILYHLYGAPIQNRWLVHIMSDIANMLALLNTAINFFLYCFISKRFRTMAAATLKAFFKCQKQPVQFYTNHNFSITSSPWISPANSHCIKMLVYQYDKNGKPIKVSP
Test: GPR139 FLIPR cell calcium signal detection in GPR139-transfected HEK293 cells
Details: HEK293 cells transfected with GPR139, read-out: EC50 values of compounds for GPR139
pEC50: −log10 of the molar value.

[
  {
    "smiles_representation": "C[C@H](NC(=O)CNC(=O)c1cc(F)ccn1)c1ccccc1F",
    "pEC50": "6.00 to 7.00"
  },
  {
    "smiles_representation": "C[C@H](NC(=O)CNC(=O)c1cccc(Cl)c1)c1cc(F)ccc1F",
    "pEC50": "7.00 to 10.00"
  },
  {
    "smiles_representation": "C[C@H](NC(=O)CNC(=O)c1cc(Cl)ccn1)c1c(F)cccc1F",
    "pEC50": "7.00 to 10.00"
  },
  {
    "smiles_representation": "C[C@H](NC(=O)CNC(=O)c1cccc(F)c1)c1c(F)cccc1F",
    "pEC50": "6.00 to 7.00"
  },
  {
    "smiles_representation": "COc1cc(F)nc(C(=O)NCC(=O)N[C@@H](C)c2ccccc2F)c1",
    "pEC50": "7.00 to 10.00"
  },
  {
    "smiles_representation": "C[C@H](NC(=O)CNC(=O)c1cc(Cl)cc(Cl)c1)c1c(F)cccc1F",
    "pEC50": "7.00 to 10.00"
  },
  {
    "smiles_representation": "C[C@H](NC(=O)CNC(=O)c1cc(Cl)cc(C(F)(F)F)n1)c1c(F)cccc1F",
    "pEC50": "6.00 to 7.00"
  },
  {
    "smiles_representation": "C[C@H](NC(=O)CNC(=O)c1cc(F)cc(F)c1)c1c(F)cccc1F",
    "pEC50": "7.00 to 10.00"
  },
  {
    "smiles_representation": "C[C@H](NC(=O)CNC(=O)c1cc(Cl)cc(C(F)(F)F)n1)c1c(F)cc(F)cc1F",
    "pEC50": "6.00 to 7.00"
  },
  {
    "smiles_representation": "C[C@H](NC(=O)CNC(=O)c1cccc(F)c1)c1ccccc1F",
    "pEC50": "7.00 to 10.00"
  }
]

* * *

// pEC50 lookup, one value per entry
molecular target: GPR139 (Homo sapiens); assay: GPR139 FLIPR cell calcium signal detection in GPR139-transfected HEK293 cells; conditions: HEK293 cells transfected with GPR139, read-out: EC50 values of compounds for GPR139
pEC50: −log10 of the molar value.
assay_metric: pEC50

[
  {
    "smiles_representation": "C[C@H](NC(=O)CNC(=O)c1cccc(Cl)c1)c1cccc(F)c1F",
    "value_observed": "7.00 to 10.00"
  },
  {
    "smiles_representation": "COc1cc(Cl)cc(C(=O)NCC(=O)N[C@@H](C)c2c(F)cccc2F)n1",
    "value_observed": "6.00 to 7.00"
  },
  {
    "smiles_representation": "C[C@H](NC(=O)CNC(=O)c1cc(F)cc(C(F)(F)F)n1)c1c(F)cccc1F",
    "value_observed": "6.00 to 7.00"
  },
  {
    "smiles_representation": "COc1cc(F)nc(C(=O)NCC(=O)N[C@@H](C)c2c(F)cccc2F)c1",
    "value_observed": "7.00 to 10.00"
  },
  {
    "smiles_representation": "C[C@H](NC(=O)CNC(=O)c1cc(Cl)cc(F)n1)c1c(F)cc(F)cc1F",
    "value_observed": "7.00 to 10.00"
  }
]
